System: A. baumannii
Test: Broth dilution MIC determination (CLSI) against A. baumannii strains
Type: cell-based
Details: Acinetobacter baumannii, IMP-4; read-out: MIC A. baumannii IMP-4
Each entry below carries its recorded MIC.

INSERT INTO assay_data (compound, target_or_system, result) VALUES
  ('CC[C@H]1OC(=O)[C@H](C)C(=O)[C@H](C)[C@@H](O[C@@H]2OC(CNC(=O)c3cnccn3)CC(N(C)C)C2O)[C@](C)(OC)C[C@@H](C)CN[C@H](C)[C@H]2N(CCCCn3cc(-c4cccc(N)c4)nn3)C(=O)O[C@]12C (some centres unmarked) [FSM-21881]', 'A. baumannii', '> 32 µg/mL');

The compound identified as CC[C@H]1OC(=O)[C@H](C)[C@@H](O[C@H]2C[C@@](C)(OC)[C@@H](O)[C@H](C)O2)[C@H](C)[C@@H](O[C@@H]2O[C@H](C)C[C@H](N(C)C)[C@H]2O)[C@](C)(O)C[C@@H](C)CN(C)[C@H](C)[C@@H](O)[C@]1(C)O [Azithromycin, azithromycin, reference compound] registered its MIC at > 32 µg/mL

* * *

Test system: S. pneumoniae
Assay: Broth dilution MIC determination (CLSI) against S. pneumoniae strains
Type: cell-based
Details: S. pneumoniae mefA, strain MP-627 UNT-039 (Table N2)
Each entry below carries its recorded MIC.
A complete answer gives the number followed by the unit.

INSERT INTO assay_data (compound, property_label, result) VALUES
  ('CCC1OC(=O)C(C)C(=O)C(C)C(OC2OC(C)CC(N3CCOC3CO)C2O)C(C)(OC)CC(C)CNC(C)C2N(CCCCn3cc(-c4cccc(N)c4)nn3)C(=O)OC12C (centres unmarked)', 'MIC', '4 µg/mL');

The compound identified as CCC1OC(=O)C(C)C(=O)C(C)C(OC2OC(C)CC(NCc3cccnc3)C2O)C(C)(OC)CC(C)CNC(C)C2N(CCCCn3cc(-c4cccc(N)c4)nn3)C(=O)OC12C (centres unmarked) registered its MIC at 1 µg/mL

The compound identified as CCC1OC(=O)C(C)C(=O)C(C)C(OC2OC(C)CC(N(C)CC#N)C2O)C(C)(OC)CC(C)CNC(C)C2N(CCCCn3cc(-c4cccc(N)c4)nn3)C(=O)OC12C (centres unmarked) registered its MIC at 0.5 µg/mL

The compound identified as CCC1OC(=O)C(C)C(=O)C(C)C(OC2OC(C)CC(N(C)Cc3cccnc3)C2O)C(C)(OC)CC(C)CNC(C)C2N(CCCCn3cc(-c4cccc(N)c4)nn3)C(=O)OC12C (centres unmarked) registered its MIC at 0.25 µg/mL

The compound identified as CCC1OC(=O)C(C)C(=O)C(C)C(OC2OC(C)CC(N(CCO)CCO)C2O)C(C)(OC)CC(C)CNC(C)C2N(CCCCn3cc(-c4cccc(N)c4)nn3)C(=O)OC12C (centres unmarked) registered its MIC at 1 µg/mL

* * *

Tested on: K. pneumoniae
Test: Broth dilution MIC determination (CLSI) against K. pneumoniae strains
Assay type: cell-based
Details: K. pneumoniae Clinical, strain MP-548 (Table N4)
Each entry below carries its recorded MIC.

INSERT INTO results (molecule, target_or_system, property_label, result) VALUES
  ('CCC1OC(=O)C(C)C(=O)C(C)C(OC2OC(C)CC(N(C)CCCS(C)(=O)=O)C2O)C(C)(OC)CC(C)CNC(C)C2N(CCCCn3cc(-c4cccc(N)c4)nn3)C(=O)OC12C (stereo not shown)', 'K. pneumoniae', 'MIC', '>64 µg/mL'),
  ('CCC1OC(=O)C(C)C(=O)C(C)C(OC2OC(C)CC(N3CCC(O)C3)C2O)C(C)(OC)CC(C)CNC(C)C2N(CCCCn3cc(-c4cccc(N)c4)nn3)C(=O)OC12C (stereo not shown) [FSM-120416]', 'K. pneumoniae', 'MIC', '>64 µg/mL'),
  ('CCC1OC(=O)C(C)C(=O)C(C)C(OC2OC(C)CC(Nc3cnccn3)C2O)C(C)(OC)CC(C)CNC(C)C2N(CCCCn3cc(-c4cccc(N)c4)nn3)C(=O)OC12C (stereo not shown)', 'K. pneumoniae', 'MIC', '>64 µg/mL');

Now look at this entry.
The molecule identified as CCC1OC(=O)C(C)C(=O)C(C)C(OC2OC(C)CC(N3CCC(O)C3)C2O)C(C)(OC)CC(C)CNC(C)C2N(CCCCn3cc(-c4cccc(N)c4)nn3)C(=O)OC12C (stereo not shown) [FSM-120417] registered its MIC at 64 µg/mL
